- TESTED_SYSTEM: PLK1 (Homo sapiens)
- Construct: The PLK1 ORF was cloned into pSSP1 such that the resulting PLK1 translation product would have a 19 amino acid N-terminal tag; made in house; host or cells: Sf9 insect cells (baculovirus)
- Sequence (P53350 whole entry): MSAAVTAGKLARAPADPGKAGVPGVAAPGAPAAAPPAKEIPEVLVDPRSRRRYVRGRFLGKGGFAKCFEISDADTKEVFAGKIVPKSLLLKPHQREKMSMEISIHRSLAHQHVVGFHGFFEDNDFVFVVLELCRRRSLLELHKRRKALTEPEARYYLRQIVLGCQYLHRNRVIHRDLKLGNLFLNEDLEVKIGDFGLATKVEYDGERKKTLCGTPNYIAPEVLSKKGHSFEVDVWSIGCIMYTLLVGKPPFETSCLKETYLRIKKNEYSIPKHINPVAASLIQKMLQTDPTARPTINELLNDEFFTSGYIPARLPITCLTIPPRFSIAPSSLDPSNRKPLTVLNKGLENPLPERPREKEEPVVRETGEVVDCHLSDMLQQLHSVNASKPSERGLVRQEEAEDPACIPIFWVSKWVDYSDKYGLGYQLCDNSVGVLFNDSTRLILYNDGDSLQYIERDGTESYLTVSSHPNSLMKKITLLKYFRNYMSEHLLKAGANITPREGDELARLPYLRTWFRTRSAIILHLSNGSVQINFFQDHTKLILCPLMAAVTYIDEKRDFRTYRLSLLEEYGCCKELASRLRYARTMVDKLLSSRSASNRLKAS
- TEST_METHOD_NOTES: PLK1 kinase assay (CDC25C phosphorylation, [γ-32P]-ATP)
- Assay type: biochemical
- MEASUREMENT_PARAMETERS: in the absence of dithiothreitol; read-out: IC50 (μM) − DTT
PROPERTY_LABEL: IC50

Exercise: Fill in reported IC50 for this entry: C[CH2][Hg][S]c1ccccc1C(=O)[O-].[Na+]
Key: 22 µM

Exercise: Tell me measured IC50 for Nc1ncnc2c1ncn2[C@@H]1O[C@H](CO)[C@@H](O)[C@H]1S please.
Key: 120 µM

Exercise: Consider the molecule Nc1ncnc2c1ncn2[C@@H]1O[C@H](CS)[C@@H](O)[C@H]1O and give its recorded IC50.
Key: 39 µM

Exercise: # return recorded IC50 for entry CCN1C(=O)C=CC1=O [N-ethylmaleimide]
Key: 55 µM

Exercise: Please report IC50 for the following molecule: Nc1ncnc2c1ncn2[C@@H]1O[C@H](CO)[C@@H](O)[C@H]1O
Key: > 200 µM

----------
- TESTED_SYSTEM: PLK1 (Homo sapiens)
- Construct: The PLK1 ORF was cloned into pSSP1 such that the resulting PLK1 translation product would have a 19 amino acid N-terminal tag; made in house; host or cells: Sf9 insect cells (baculovirus)
- TEST_METHOD_NOTES: PLK1 kinase assay (CDC25C phosphorylation, [γ-32P]-ATP)
- Type: biochemical
- MEASUREMENT_PARAMETERS: Table 14; read-out: Plk1 (IC50)
pIC50: −log10 of the molar value.
So I've got a bunch of compounds here, and I need their pIC50 values.

Exercise: Lab note: PLK1 (Homo sapiens) assay, enter pIC50 for O=C(N[C@@H]1CNCCC[C@H]1OC(=O)c1cc(O)c(C(=O)c2c(O)cccc2C(=O)O)c(O)c1)c1ccc(O)cc1 here
Key: < 3.70

Exercise: Look up and report measured pIC50 (PLK1 (Homo sapiens)) for the following compound: Cc1ncc2ccccc2c1C#N
Key: < 3.30

Exercise: Look up and report pIC50, with PLK1 (Homo sapiens) as system, for CCCCCCOC(=O)[C@]1(O)C[C@@H]2O[C@@]1(C)n1c3ccccc3c3c4c(c5c6ccccc6n2c5c31)C(=O)NC4
Key: < 3.30

Exercise: GET pIC50 | system: PLK1 (Homo sapiens) | item: Cl.NCCNS(=O)(=O)c1cccc2c(Cl)cccc12
Key: < 3.30

----------
PROPERTY_LABEL: IC50

Exercise: Specify the recorded IC50 for COC[C@H]1OC(=O)c2coc3c2[C@@]1(C)C1=C(C3=O)[C@@H]2CCC(=O)[C@@]2(C)C[C@H]1OC(C)=O , system: UniProt P24941.
Key: > 10 µM

----------
- TESTED_SYSTEM: PLK1 (Homo sapiens)
- Construct: The PLK1 ORF was cloned into pSSP1 such that the resulting PLK1 translation product would have a 19 amino acid N-terminal tag; made in house; host or cells: Sf9 insect cells (baculovirus)
- TEST_METHOD_NOTES: PLK1 kinase assay (CDC25C phosphorylation, [γ-32P]-ATP)
- Type: biochemical
PROPERTY_LABEL: PLK1 inhibition, result in words

COc1ccc(-c2oc3cc(O)cc(O)c3c(=O)c2O)cc1 [kaempferide]    inactivity
NC(=O)CI [Iodoacetamide]    to some extent
O=c1c(O)c(-c2cc(O)c(O)c(O)c2)oc2cc(O)cc(O)c12 [Myricetin]    lack of inhibition
O=c1c(O)c(-c2ccc(O)c(O)c2)oc2cc(O)ccc12 [fisetin]    inactivity
C[CH2][Hg][S]c1ccccc1C(=O)[O-].[Na+] [Thimerosal]    to some extent

Shifting focus to the compound that follows.
Exercise: Give the value of PLK1 inhibition, result in words reported for the following: O=c1c(O)c(-c2ccc(O)cc2)oc2cc(O)cc(O)c12 [kaepmpferol]
Key: lack of inhibition
